The measured values listed here are drawn from ChEMBL document CHEMBL1123778.

This section lists pIC50 readings for Polyunsaturated fatty acid 5-lipoxygenase (Rattus norvegicus, UniProt P12527).
pIC50: −log10 of the molar value.
property: pIC50

CCCCC/C=C\C/C=C\C/C=C\C=C\C(O)CCCC(=O)NO (stereo not given)	5.68
CCCCC/C=C\C/C=C\C/C=C\C=C\C(CS)CCCC(=O)O (stereo not given)	4.96
CCCCC/C=C\C/C=C\C/C=C\C=C\C(CCCC(=O)O)C(=O)NO (stereo not given)	5.85
CCCCC/C=C\C/C=C\C/C=C\C=C\C(CCO)CCCC(=O)O (stereo not given)	4.66
CCCCC/C=C\C/C=C\C/C=C\C/C=C\CCCC(=O)NO	5.66
